Reported IC50 is given for each of the following compounds.
# Target under test: Kras and SOS1 (biotin-tagged human Kras loaded with GDP, His-tagged human SOS1) (Homo sapiens, UniProt P01116, G12D)
# Construct: made in house; host or cells: E. coli (stated for Kras only)
# Sequence (P01116 1-188 isoform P01116-2 G12D): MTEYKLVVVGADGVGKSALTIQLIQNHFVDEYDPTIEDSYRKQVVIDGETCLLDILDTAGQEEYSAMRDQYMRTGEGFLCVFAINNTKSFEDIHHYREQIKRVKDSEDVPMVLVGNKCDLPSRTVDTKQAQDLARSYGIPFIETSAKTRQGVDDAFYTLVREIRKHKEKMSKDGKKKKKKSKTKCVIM
# Assay details: Protein-protein interaction inhibition between Kras and SOS1 (KrasGl2D-SOS PPI) using AlphaScreen
# Format: binding
# Recorded conditions: AlphaScreen; biotin-tagged human Kras loaded with GDP, His-tagged human SOS1; read-out: KRAS G12D-SOS PPI IC50
Non-standard residues stand in square brackets, D forms with d. Residues, ends and D or L forms follow the SMILES beside them. hPhe(3-Cl-4-CF3) = N[C@@H](CCc1ccc(C(F)(F)F)c(Cl)c1)C(=O)O; NMePhe(4-Me) = CN[C@@H](Cc1ccc(C)cc1)C(=O)O; NMeGly(cPent) = CN[C@H](C(=O)O)C1CCCC1; NMeCha = CN[C@@H](CC1CCCCC1)C(=O)O; NMeL = CN[C@@H](CC(C)C)C(=O)O; d(β3hA) = C[C@@H](N)CC(=O)O; NMeA = CN[C@@H](C)C(=O)O; Ac5c = NC1(C(=O)O)CCCC1; Aze = O=C(O)[C@@H]1CCN1; Sar = CNCC(=O)O

- Compound: "CC[C@H](C)[C@@H]1NC(=O)[C@H](C)N(C)C(=O)C[C@@H](C)NC(=O)[C@H](C2CCCC2)N(C)C(=O)C2(CCCC2)NC(=O)[C@@H]2CCCN2C(=O)[C@H](CCc2ccc(C(F)(F)F)c(Cl)c2)NC(=O)CN(C)C(=O)[C@H](Cc2ccc(C)cc2)N(C)C(=O)[C@@H]2CCN2C(=O)CN(C)C1=O [Compound 1462] (cyclo([Ac5c][NMeGly(cPent)][d(β3hA)][NMeA]I[Sar][Aze][NMePhe(4-Me)][Sar][hPhe(3-Cl-4-CF3)]P))"
  IC50 [nM]: 0.79
- Compound: "CC(C)C[C@H]1C(=O)N[C@@H](C(C)C)C(=O)N(C)CC(=O)N(C)CC(=O)N(C)[C@@H](CC2CCCCC2)C(=O)N(C)CC(=O)N[C@@H](CCc2ccc(C(F)(F)F)c(Cl)c2)C(=O)N2CCC[C@H]2C(=O)NC2(CCCC2)C(=O)N(C)[C@@H](CC(C)C)C(=O)N[C@H](C)CC(=O)N1C [Compound 1452] (cyclo([Ac5c][NMeL][d(β3hA)][NMeL]V[Sar][Sar][NMeCha][Sar][hPhe(3-Cl-4-CF3)]P))"
  IC50 [nM]: 38

The measurements presented in this section are drawn from patent US12371454B2.
